Target sequence: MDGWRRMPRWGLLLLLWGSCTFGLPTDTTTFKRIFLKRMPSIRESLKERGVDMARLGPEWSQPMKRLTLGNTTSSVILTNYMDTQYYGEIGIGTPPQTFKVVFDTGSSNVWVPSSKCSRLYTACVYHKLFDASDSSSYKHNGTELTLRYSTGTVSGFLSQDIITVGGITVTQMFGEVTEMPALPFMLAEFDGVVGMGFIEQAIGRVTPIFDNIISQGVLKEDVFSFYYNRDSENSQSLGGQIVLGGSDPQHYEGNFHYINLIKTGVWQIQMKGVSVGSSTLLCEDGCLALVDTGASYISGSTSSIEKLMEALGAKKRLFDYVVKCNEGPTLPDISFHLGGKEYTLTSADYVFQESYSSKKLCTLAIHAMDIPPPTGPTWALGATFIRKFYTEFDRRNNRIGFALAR

{"columns": ["molecule smiles", "value relation sign", "IC50, nM"],
 "data": [
  ["CCn1c(C(=O)N(CC(C)C)[C@@H]2CNC[C@H](C(=O)N3CCOCC3)C2)nc2ccccc21", "=", 0.89],
  ["COCCCCn1c(C(=O)N(CC(C)C)[C@@H]2CNC[C@H](CO)C2)nc2ccccc21", "=", 0.32],
  ["COCCCOc1nc(C(C)(C)C)ncc1C(=O)N(CC(C)C)[C@@H]1CNC[C@H](C(=O)N2CCOCC2)C1", ">", 100],
  ["COCCCCc1c(C(=O)N(CC(C)C)[C@@H]2CNC[C@H](C(=O)N3CCOCC3)C2)nc2n1CCCC2", "=", 2.7],
  ["COCCCCn1nc(-c2ccccc2)cc1C(=O)N(CC(C)C)[C@@H]1CNC[C@H](C(=O)N2CCOCC2)C1", ">", 100]
]}

---

Experiment: in vivo
Settings: rat, po, 1 mg/kg
Assign 1.0 whenever AUC does not fall below 4 ng·h/mL; assign 0.0 whenever it does.

{"columns": ["molecule smiles", "category label"],
 "data": [
  ["COCCCCc1c(C(=O)N(CC(C)C)[C@@H]2CNC[C@H](C(=O)N3CCOCC3)C2)nnn1-c1ccccc1", 0.0],
  ["CCn1c(C(=O)N(CC(C)C)[C@@H]2CNC[C@H](C(=O)N3CCOCC3)C2)nc2ccccc21", 1.0],
  ["COCCCCn1c(C(=O)N(CC(C)C)[C@@H]2CNC[C@H](C(=O)N3CCOCC3)C2)ccc1-c1ccccc1", 1.0],
  ["COCCCCc1c(C(=O)N(CC(C)C)[C@@H]2CNC[C@H](C(=O)N3CCOCC3)C2)cnn1-c1ccccc1", 0.0],
  ["COCCCCn1c(C(=O)N(CC(C)C)[C@@H]2CNC[C@H](CO)C2)nc2ccccc21", 1.0]
]}

---

Assay: in vitro
Conditions: PAMPA, pH 7.4
Description: Permeability of the compound at pH 7.4 buffer after 3 hrs by PAMPA
Note that class boundaries on Papp at 3 h are low (below 10 ×10⁻⁶ cm/s), middle (10 ×10⁻⁶ cm/s to below 30 ×10⁻⁶ cm/s), high (30 ×10⁻⁶ cm/s or more)

{"columns": ["molecule smiles", "category label"],
 "data": [
  ["COCCCOc1nc(C(C)(C)C)ncc1C(=O)N(CC(C)C)[C@@H]1CNC[C@H](C(=O)N2CCOCC2)C1", "middle"],
  ["COCCCCc1c(C(=O)N(CC(C)C)[C@@H]2CNC[C@H](C(=O)N3CCOCC3)C2)ncn1-c1ccccc1", "low"],
  ["COCCCCn1c(C(=O)N(CC(C)C)[C@H]2CCCNC2)nc2ccccc21", "high"],
  ["COCCCCc1c(C(=O)N(CC(C)C)[C@@H]2CNC[C@H](C(=O)N3CCOCC3)C2)cnn1-c1ccccc1", "low"],
  ["COCCCCc1c(C(=O)N(CC(C)C)[C@@H]2CNC[C@H](C(=O)N3CCOCC3)C2)nnn1-c1ccccc1", "high"],
  ["COCCCCn1c(C(=O)N(CC(C)C)[C@@H]2CNC[C@H](C(=O)N3CCOCC3)C2)ccc1-c1ccccc1", "middle"],
  ["COCCCCn1c(C(=O)N(CC(C)C)[C@@H]2CNC[C@H](CO)C2)nc2ccccc21", "low"],
  ["COCCCCn1c(C(=O)N(CC(C)C)[C@@H]2CNC[C@H](C(C)(C)O)C2)nc2ccccc21", "middle"],
  ["CCn1c(C(=O)N(CC(C)C)[C@@H]2CNC[C@H](CO)C2)nc2ccccc21", "low"],
  ["CC(C)CN(C(=O)c1nc2ccccc2n1C)[C@@H]1CNC[C@H](C(=O)N2CCOCC2)C1", "middle"],
  ["CCCCCCc1nc(C(C)(C)C)ncc1C(=O)N(CC(C)C)[C@@H]1CNC[C@H](C(=O)N2CCOCC2)C1", "high"],
  ["COCCCCn1c(C(=O)N(CC(C)C)[C@@H]2CNC[C@H](C(=O)N3CCOCC3)C2)nnc1-c1ccccc1", "middle"],
  ["COCCCNc1nc(C(C)(C)C)ncc1C(=O)N(CC(C)C)[C@@H]1CNC[C@H](C(=O)N2CCOCC2)C1", "high"],
  ["CCn1c(C(=O)N(CC(C)C)[C@@H]2CNC[C@H](C(=O)N3CCOCC3)C2)nc2ccccc21", "middle"]
]}

---

Listed next: entries and their corresponding IC50.
Molecular target: UniProtKB P00797
Sequence (P00797 whole entry): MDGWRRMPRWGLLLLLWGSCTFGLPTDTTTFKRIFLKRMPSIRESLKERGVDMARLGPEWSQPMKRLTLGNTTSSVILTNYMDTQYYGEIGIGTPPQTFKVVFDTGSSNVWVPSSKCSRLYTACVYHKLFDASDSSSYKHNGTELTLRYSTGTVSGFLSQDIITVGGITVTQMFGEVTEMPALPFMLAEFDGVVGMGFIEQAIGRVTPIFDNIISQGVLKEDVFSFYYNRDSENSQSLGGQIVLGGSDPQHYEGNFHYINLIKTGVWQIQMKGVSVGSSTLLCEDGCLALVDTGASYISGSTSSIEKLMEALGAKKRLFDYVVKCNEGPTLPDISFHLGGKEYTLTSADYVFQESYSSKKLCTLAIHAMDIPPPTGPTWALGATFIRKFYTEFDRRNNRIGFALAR

{"columns": ["molecule smiles", "IC50"],
 "data": [
  ["CCCCCNc1nc(C(C)(C)C)ncc1C(=O)N(CC(C)C)[C@@H]1CNC[C@H](C(=O)N2CCOCC2)C1", "5.4 nM"],
  ["COCCCCn1c(C(=O)N(CC(C)C)[C@@H]2CNC[C@H](C(=O)N3CCOCC3)C2)cnc1-c1ccccc1", "2.8 nM"],
  ["COCCCCc1c(C(=O)N(CC(C)C)[C@@H]2CNC[C@H](C(=O)N3CCOCC3)C2)nc2ccccn12", "1.1 nM"],
  ["CCn1c(C(=O)N(CC(C)C)[C@@H]2CNC[C@H](CO)C2)nc2ccccc21", "> 10 nM"],
  ["CCn1c(C(=O)N(CC(C)C)[C@@H]2CNC[C@H](C(=O)N3CCOCC3)C2)nc2ccccc21", "1.3 nM"],
  ["COCCCCn1c(C(=O)N(CC(C)C)[C@@H]2CNC[C@H](C(=O)N3CCOCC3)C2)ccc1-c1ccccc1", "3.4 nM"]
]}

---

# reported bioavailability; entries follow
Assay: in vivo
Conditions: rat, po, 1 mg/kg

{"columns": ["molecule smiles", "bioavailability"],
 "data": [
  ["COCCCNc1nc(C(C)(C)C)ncc1C(=O)N(CC(C)C)[C@@H]1CNC[C@H](C(=O)N2CCOCC2)C1", "< 1%"],
  ["COCCCCn1c(C(=O)N(CC(C)C)[C@@H]2CNC[C@H](C(=O)N3CCOCC3)C2)cnc1-c1ccccc1", "< 1%"],
  ["COCCCCn1c(C(=O)N(CC(C)C)[C@@H]2CNC[C@H](C(=O)N3CCOCC3)C2)nnc1-c1ccccc1", "< 1%"]
]}

---

Record set of pIC50 for target or system Renin (Homo sapiens).
pIC50: −log10 of the molar value.

{"columns": ["molecule smiles", "value relation sign", "pIC50"],
 "data": [
  ["COCCCCn1nc(-c2ccccc2)cc1C(=O)N(CC(C)C)[C@@H]1CNC[C@H](C(=O)N2CCOCC2)C1", "<", 7.00],
  ["COCCCCn1c(C(=O)N(CC(C)C)[C@H]2CCCNC2)nc2ccccc21", "=", 9.05],
  ["CCn1c(C(=O)N(CC(C)C)[C@@H]2CNC[C@H](C(=O)N3CCOCC3)C2)nc2ccccc21", "=", 9.18],
  ["COCCCOc1nc(C(C)(C)C)ncc1C(=O)N(CC(C)C)[C@@H]1CNC[C@H](C(=O)N2CCOCC2)C1", "<", 7.00],
  ["COCCCCc1c(C(=O)N(CC(C)C)[C@@H]2CNC[C@H](C(=O)N3CCOCC3)C2)nnn1-c1ccccc1", "=", 9.00],
  ["COCCCCn1c(C(=O)N(CC(C)C)[C@@H]2CNC[C@H](C(=O)N3CCOCC3)C2)nnc1-c1ccccc1", "=", 8.85],
  ["COCCCCc1c(C(=O)N(CC(C)C)[C@@H]2CNC[C@H](C(=O)N3CCOCC3)C2)nc2ccccn12", "=", 8.80],
  ["COCCCCc1c(C(=O)N(CC(C)C)[C@@H]2CNC[C@H](C(=O)N3CCOCC3)C2)nc2n1CCCC2", "=", 8.66],
  ["CC(C)CN(C(=O)c1nc2ccccc2n1C)[C@@H]1CNC[C@H](C(=O)N2CCOCC2)C1", "=", 9.20],
  ["CCCCCNc1nc(C(C)(C)C)ncc1C(=O)N(CC(C)C)[C@@H]1CNC[C@H](C(=O)N2CCOCC2)C1", "=", 9.70],
  ["CCn1c(C(=O)N(CC(C)C)[C@@H]2CNC[C@H](CO)C2)nc2ccccc21", "=", 7.80],
  ["COCCCCn1c(C(=O)N(CC(C)C)[C@@H]2CNC[C@H](C(=O)N3CCOCC3)C2)cnc1C(C)(C)C", "=", 7.32],
  ["CC(C)CN(C(=O)c1nc2ccccc2[nH]1)[C@@H]1CNC[C@H](C(=O)N2CCOCC2)C1", "=", 9.12],
  ["COCCCCn1c(C(=O)N(CC(C)C)[C@@H]2CNC[C@H](C(=O)N3CCOCC3)C2)ccc1-c1ccccc1", "=", 9.80],
  ["COCCCCc1c(C(=O)N(CC(C)C)[C@@H]2CNC[C@H](C(=O)N3CCOCC3)C2)cnn1-c1ccccc1", "=", 8.96]
]}
